Target: human renin (Homo sapiens, UniProt P00797)
Sequence (P00797 67-406): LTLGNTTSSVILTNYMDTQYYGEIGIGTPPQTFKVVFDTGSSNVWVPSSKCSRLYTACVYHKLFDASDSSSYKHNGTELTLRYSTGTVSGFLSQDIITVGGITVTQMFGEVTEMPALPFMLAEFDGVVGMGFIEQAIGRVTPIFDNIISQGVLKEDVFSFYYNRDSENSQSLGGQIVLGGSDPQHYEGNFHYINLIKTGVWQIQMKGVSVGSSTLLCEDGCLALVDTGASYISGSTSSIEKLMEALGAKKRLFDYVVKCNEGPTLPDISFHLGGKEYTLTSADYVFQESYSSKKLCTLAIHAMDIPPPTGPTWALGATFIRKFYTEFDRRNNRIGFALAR
Experiment: In vitro human renin inhibition (renin activity in human plasma, angiotensin I radioimmunoassay)
Settings: human plasma from healthy volunteers; angiotensin I difference between 37° and 4° for 2 h; linear regression of at least three concentrations; read-out: IC₅₀
pIC50: −log10 of the molar value. Counter-ions that a name gives are not always drawn.
endpoint-label: pIC50

molecule: COc1cccc2c1OCC2CC(=O)N[C@@H](Cc1ccccc1)C(=O)N[C@@H](CC(C)C)C(=O)N[C@@H](CC1CCCCC1)[C@@H](O)CC(=O)NCC(C)C (some centres unmarked) [E 3, hemihydrate]
value: 7.30
--
molecule: CC(C)CNC(=O)C[C@H](O)[C@H](CC1CCCCC1)NC(=O)[C@H](CC(C)C)NC(=O)[C@H](Cc1ccccc1)NC(=O)CC1COc2ccc([N+](=O)[O-])cc21 (some centres unmarked) [E 5, hemihydrate]
value: 7.22
--
molecule: CC(C)CNC(=O)C[C@H](O)[C@H](CC1CCCCC1)NC(=O)[C@H](CC(C)C)NC(=O)[C@H](Cc1ccccc1)NC(=O)CC1COc2ccc(CNCC(=O)O)cc21 (some centres unmarked) [Example E36a]
value: 7.00
--
molecule: CC(C)CNC(=O)C[C@H](O)[C@H](CC1CCCCC1)NC(=O)[C@H](CC(C)C)NC(=O)[C@H](Cc1ccccc1)NC(=O)CC1COc2ccc(S(=O)(=O)CC(=O)O)cc21 (some centres unmarked) [Example E56, sodium salt]
value: 7.22
--
molecule: CNS(=O)(=O)c1ccc2c(c1)C(CC(=O)N[C@@H](Cc1ccccc1)C(=O)N[C@@H](CC(C)C)C(=O)N[C@@H](CC1CCCCC1)[C@@H](O)CC(=O)NCC(C)C)CO2 (some centres unmarked)
value: 7.30
--
molecule: CC(C)CNC(=O)C[C@H](O)[C@H](CC1CCCCC1)NC(=O)[C@H](CC(C)C)NC(=O)[C@H](Cc1ccccc1)NC(=O)CC1CS(=O)(=O)c2cc(CN)ccc21 (some centres unmarked) [Example E31a, dihydrate]
value: 8.10
--
molecule: CC(C)CNC(=O)C[C@H](O)[C@H](CC1CCCCC1)NC(=O)[C@H](CC(C)C)NC(=O)[C@H](Cc1ccccc1)NC(=O)CC1CS(=O)(=O)c2ccc(C#N)cc21 (some centres unmarked)
value: 8.05
--
molecule: CC(C)CNC(=O)C[C@H](O)[C@H](CC1CCCCC1)NC(=O)[C@H](CC(C)C)NC(=O)[C@H](Cc1ccccc1)NC(=O)CC1COc2ccc(N)cc21 (some centres unmarked) [E 6, trifluoroacetate hemihydrate]
value: 7.52
--
molecule: CC(C)CNC(=O)C[C@H](O)[C@H](CC1CCCCC1)NC(=O)[C@H](CC(C)C)NC(=O)[C@H](Cc1ccccc1)NC(=O)CC1COc2ccc(NC(N)=O)cc21 (some centres unmarked) [E 7, dihydrate]
value: 7.30
--
molecule: CC(C)CNC(=O)C[C@H](O)[C@H](CC1CCCCC1)NC(=O)[C@H](Cc1cnc[nH]1)NC(=O)[C@H](Cc1ccccc1)NC(=O)CC1COc2ccc(C(=O)OCc3ccccc3)cc21 (some centres unmarked) [Example E23, hemihydrate]
value: 6.33

(I) CC(C)CNC(=O)C[C@H](O)[C@H](CC1CCCCC1)NC(=O)[C@H](CC(C)C)NC(=O)[C@H](Cc1ccccc1)NC(=O)CC1CS(=O)(=O)c2cc(N)ccc21 (some centres unmarked) [Example E29, dihydrate]
(II) CC(C)CNC(=O)C[C@H](O)[C@H](CC1CCCCC1)NC(=O)[C@H](CC(C)C)NC(=O)[C@H](Cc1ccccc1)NC(=O)CC1COc2ccc(CN)cc21 (some centres unmarked) [Example E20a]
Incoming: Kindly compare I with II and tell me which has the lower pIC50 figure. Please reply using the label of the selected record.
Outgoing: II
(II: 7.52, I: 8.00)

(1) CC(C)CNC(=O)C[C@H](O)[C@H](CC1CCCCC1)NC(=O)[C@H](CC(C)C)NC(=O)[C@H](Cc1ccccc1)NC(=O)CC1CS(=O)(=O)c2ccccc21 (some centres unmarked)
(2) CC(C)CNC(=O)C[C@H](O)[C@H](CC1CCCCC1)NC(=O)[C@H](Cc1c[nH]cn1)NC(=O)[C@H](Cc1ccccc1)NC(=O)CC1COc2ccc([N+](=O)[O-])cc21 (some centres unmarked) [Example E39, hydrate]
Incoming: Just tell me: smaller pIC50 value, 1 or 2 ? Write down the label of the entry you select.
Outgoing: 2
